- target.system: T1, HU-RAGE-SA (human, UniProt Q15109 23-342)
- T1 construct: extracellular domain; Directly immobilized on a CM5 chip (~100 RU); also called hRAGE-SA; soluble human streptavidin-tagged RAGE; not shown: streptavidin tag (SA)
- T1 sequence (Q15109 23-342): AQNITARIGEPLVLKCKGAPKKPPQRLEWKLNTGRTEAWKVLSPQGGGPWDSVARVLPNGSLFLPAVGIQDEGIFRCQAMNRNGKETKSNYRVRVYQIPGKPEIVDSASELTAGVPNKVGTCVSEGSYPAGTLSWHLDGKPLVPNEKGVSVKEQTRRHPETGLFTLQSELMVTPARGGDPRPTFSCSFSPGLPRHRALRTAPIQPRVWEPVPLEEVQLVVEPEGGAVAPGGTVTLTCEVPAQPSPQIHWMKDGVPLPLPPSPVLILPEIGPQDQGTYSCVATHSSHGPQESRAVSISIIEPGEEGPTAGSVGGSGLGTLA
- test.protocol: BIAcore, 10 nM scFv-Fc over directly immobilized HU-RAGE-SA, 1:1 fit

| binder | unit.of.measure | koff |
| --- | --- | --- |
| 3B2 scFv-Fc fusion (Fc fusion, not shown: wild-type human IgG Fc (hinge and constant domains)) DIQMTQSPSSLSASVGDRVTITCRASQDVGIYVNWFQQKPGKAPRRLIYRATNLADGVPSRFSGSRSGTDFTLTISSLQPEDFATYYCLEFDEHPLTFGGGTKVEIKDGGGSGGGGSGGGGSSEVQLVESGGGLVQPGGSLRLSCAASGFTFNNYWMTWVRQAPGKGLEWVASIDNSGDNTYYPDSVKDRFTISRDNAKNSLYLQMNSLRAEDTAVYYCARGGDILVGLDYWGQGTLVTVSS | s⁻¹ | 0.000684 |
| 6G4 scFv-Fc fusion (Fc fusion, Assayed separately; fold gain against the M4 value of the ribosome display set; not shown: wild-type human IgG Fc (hinge and constant domains)) DIQMTQSPSSLSASVGDRVTITCRASQDVGIYVNWFQQKPGKAPRRLIYRATNLADGVPSRFSGSRSGTDFTLTISSLQPEDFATYYCLEFDEHPLTFGGGTKVEIKDGGGSGGGGSGGGGSSEVQLVESGGGLVQPGGSLRLSCAASGFTFNNYWMTWVRQAPGKGLEWVASIDNSGDNTYYPDSVKDRFTISRDNAKNSLYLQMNSLRAEDTAVYYCARGGDILDSLHFWGQGTLVTVSS | s⁻¹ | 0.00388 |
| 3D2 scFv-Fc fusion (Fc fusion, not shown: wild-type human IgG Fc (hinge and constant domains)) DIQMTQSPSSLSASVGDRVTITCRASQDVGIYVNWFQQKPGKAPRRLIYRATNLADGVPSRFSGSRSGTDFTLTISSLQPEDFATYYCLEFDEHPLTFGGGTKVEIKDGGGSGGGGSGGGGSSEVQLVESGGGLVQPGGSLRLSCAASGFTFNNYWMTWVRQAPGKGLEWVASIDNSGDNTYYPDSVKDRFTISRDNAKNSLYLQMNSLRAEDTAVYYCARGGDIRVSLDHWGQGTLVTVSS | s⁻¹ | 0.00391 |
| 1G6 scFv-Fc fusion (Fc fusion, not shown: wild-type human IgG Fc (hinge and constant domains)) DIQMTQSPSSLSASVGDRVTITCRASQDVGFYVNWFQQKPGKAPRRLIYRATNLADGVPSRFSGSRSGTDFTLTISSLQPEDFATYYCLEFDEHPLTFGGGTKVEIKDGGGSGGGGSGGGGSSEVQLVESGGGLVQPGGSLRLSCAASGFTFNNYWMTWVRQAPGKGLEWVASIDNSGDNTYYPDSVKDRFTISRDNAKNSLYLQMNSLRAEDTAVYYCARGGDITNGFDYWGQGTLVTVSS | s⁻¹ | 0.000438 |
| 10H6 scFv-Fc fusion (Fc fusion, also called 10H6 (a); not shown: wild-type human IgG Fc (hinge and constant domains)) DIQMTQSPSSLSASVGDGVTITCQASQDVGIYVNWFQQKPGKAPRRLIYRATNLADGVPSRFSGSRSGTDFTLTISSLQPEDFATYYCLEFDEHPLTFGGGTKVEIKNGGGSGGGGSGGGGSSEVQLVESGGGLVQPGGSLRLSCAASGFTFNNYWMTWVRQAPGKGLEWVASIDNSGDNTYYPDSVKDRFTISRDNAKNSLYLQMNSLRAEDTAVYYCARGGDITTGLDYWGQGTLVTESS | s⁻¹ | 0.00116 |

Values from patent US20100143349A1
